TARGET ENTITY: T1, human CTLA-4, full-length, expressed on transfected Expi293 cells (human, UniProt P16410 36-223)
T1 construct: whole, on cells
T1 sequence (P16410 36-223): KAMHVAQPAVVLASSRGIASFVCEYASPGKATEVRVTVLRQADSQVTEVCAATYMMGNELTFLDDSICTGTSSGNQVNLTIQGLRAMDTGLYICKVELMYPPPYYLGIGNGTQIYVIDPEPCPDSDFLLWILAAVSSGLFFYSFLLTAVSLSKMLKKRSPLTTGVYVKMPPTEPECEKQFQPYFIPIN
ASSAY REMARKS: flow cytometry, 100 nM, Expi293 cells with human CTLA-4
Some binders, each annotated with its measured MFI.

BINDER	MFI
variant ICOSL IgV-Fc fusion N52G/N57P/Q100D (Fc fusion) DTQEKEVRAMVGSDVELSCACPEGSRFDLNDVYVYWQTSESKTVVTYHIPQGSSLEPVDSRYRNRALMSPAGMLRGDFSLRLFNVTPQDEQKFHCLVLSDSLGFQEVLSVEVTLHVAANFSVGSGGGGSEPKSSDKTHTCPPCPAPEAEGAPSVFLFPPKPKDTLMISRTPEVTCVVVDVSHEDPEVKFNWYVDGVEVHNAKTKPREEQYNSTYRVVSVLTVLHQDWLNGKEYKCKVSNKALPAPIEKTISKAKGQPREPQVYTLPPSREEMTKNQVSLTCLVKGFYPSDIAVEWESNGQPENNYKTTPPVLDSDGSFFLYSKLTVDKSRWQQGNVFSCSVMHEALHNHYTQKSLSLSPG	10200 MFI
variant ICOSL IgV-Fc fusion N52R/N57Y/Q100P (Fc fusion) DTQEKEVRAMVGSDVELSCACPEGSRFDLNDVYVYWQTSESKTVVTYHIPQRSSLEYVDSRYRNRALMSPAGMLRGDFSLRLFNVTPQDEQKFHCLVLSPSLGFQEVLSVEVTLHVAANFSVGSGGGGSEPKSSDKTHTCPPCPAPEAEGAPSVFLFPPKPKDTLMISRTPEVTCVVVDVSHEDPEVKFNWYVDGVEVHNAKTKPREEQYNSTYRVVSVLTVLHQDWLNGKEYKCKVSNKALPAPIEKTISKAKGQPREPQVYTLPPSREEMTKNQVSLTCLVKGFYPSDIAVEWESNGQPENNYKTTPPVLDSDGSFFLYSKLTVDKSRWQQGNVFSCSVMHEALHNHYTQKSLSLSPG	502000 MFI
variant ICOSL IgV-Fc fusion N52M/N57H/Q100S (Fc fusion) DTQEKEVRAMVGSDVELSCACPEGSRFDLNDVYVYWQTSESKTVVTYHIPQMSSLEHVDSRYRNRALMSPAGMLRGDFSLRLFNVTPQDEQKFHCLVLSSSLGFQEVLSVEVTLHVAANFSVGSGGGGSEPKSSDKTHTCPPCPAPEAEGAPSVFLFPPKPKDTLMISRTPEVTCVVVDVSHEDPEVKFNWYVDGVEVHNAKTKPREEQYNSTYRVVSVLTVLHQDWLNGKEYKCKVSNKALPAPIEKTISKAKGQPREPQVYTLPPSREEMTKNQVSLTCLVKGFYPSDIAVEWESNGQPENNYKTTPPVLDSDGSFFLYSKLTVDKSRWQQGNVFSCSVMHEALHNHYTQKSLSLSPG	463000 MFI
variant ICOSL IgV-Fc fusion N52T/N57Y/Q100A (Fc fusion) DTQEKEVRAMVGSDVELSCACPEGSRFDLNDVYVYWQTSESKTVVTYHIPQTSSLEYVDSRYRNRALMSPAGMLRGDFSLRLFNVTPQDEQKFHCLVLSASLGFQEVLSVEVTLHVAANFSVGSGGGGSEPKSSDKTHTCPPCPAPEAEGAPSVFLFPPKPKDTLMISRTPEVTCVVVDVSHEDPEVKFNWYVDGVEVHNAKTKPREEQYNSTYRVVSVLTVLHQDWLNGKEYKCKVSNKALPAPIEKTISKAKGQPREPQVYTLPPSREEMTKNQVSLTCLVKGFYPSDIAVEWESNGQPENNYKTTPPVLDSDGSFFLYSKLTVDKSRWQQGNVFSCSVMHEALHNHYTQKSLSLSPG	341000 MFI
